Where do the numbers come from? From patent US8008299B2.

- Tested Target: UT receptors in HSMM (Human Skeletal Muscle Myoblasts) (Homo sapiens)
- Sequence (Q9UKP6 1-389): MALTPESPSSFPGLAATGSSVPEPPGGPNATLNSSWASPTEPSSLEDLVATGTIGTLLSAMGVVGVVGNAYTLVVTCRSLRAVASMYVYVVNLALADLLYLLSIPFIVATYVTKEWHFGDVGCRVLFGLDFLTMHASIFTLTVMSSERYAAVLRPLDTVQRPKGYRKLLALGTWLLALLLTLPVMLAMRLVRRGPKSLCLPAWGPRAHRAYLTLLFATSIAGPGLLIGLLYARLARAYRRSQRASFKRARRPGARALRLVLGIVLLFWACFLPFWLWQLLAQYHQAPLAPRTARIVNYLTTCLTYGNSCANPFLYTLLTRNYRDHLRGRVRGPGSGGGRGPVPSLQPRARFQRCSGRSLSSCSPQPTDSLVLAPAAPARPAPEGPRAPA
- Run Description: Human Radioligand Binding Assay ((^125I)-U-II binding to intact HSMM)
Measured Property: Ki (µM)

Some solved cases for reference:
{"Mol": "CCN1CCN(c2cccc3c2CN([C@H](CCCNCc2ccc(F)cc2)c2ccc(OC)c(OC)c2)C3=O)CC1", "Tested Target": "UT receptors in HSMM (Human Skeletal Muscle Myoblasts) (Homo sapiens)", "Measured Property": "Ki", "Observed Result": 0.062}
{"Mol": "CCN1CCN(c2cccc3c2CN([C@H](CCCNS(N)(=O)=O)c2ccc(OC)c(OC)c2)C3=O)CC1", "Tested Target": "UT receptors in HSMM (Human Skeletal Muscle Myoblasts) (Homo sapiens)", "Measured Property": "Ki", "Observed Result": 0.109}
{"Mol": "CCN1CCN(c2cccc3c2CN([C@H](CCCn2ncnn2)c2ccc(OC)c(OC)c2)C3=O)CC1", "Tested Target": "UT receptors in HSMM (Human Skeletal Muscle Myoblasts) (Homo sapiens)", "Measured Property": "Ki", "Observed Result": 0.172}
{"Mol": "CCN1CCN(c2cccc3c2CN([C@H](CCCNC(=O)C2CCC2)c2ccc(OC)c(OC)c2)C3=O)CC1", "Tested Target": "UT receptors in HSMM (Human Skeletal Muscle Myoblasts) (Homo sapiens)", "Measured Property": "Ki", "Observed Result": 0.018}
{"Mol": "CCN1CCN(c2cccc3c2CN([C@H](CCCNc2nccc(C(F)(F)F)n2)c2ccc(OC)c(OC)c2)C3=O)CC1", "Tested Target": "UT receptors in HSMM (Human Skeletal Muscle Myoblasts) (Homo sapiens)", "Measured Property": "Ki", "Observed Result": 0.013}
{"Mol": "COc1ccc([C@@H](CCCN(C)c2ccccc2)N2Cc3c(cccc3N3CCNCC3)C2=O)cc1OC", "Tested Target": "UT receptors in HSMM (Human Skeletal Muscle Myoblasts) (Homo sapiens)", "Measured Property": "Ki", "Observed Result": 0.52}
{"Mol": "CCN1CCN(c2cccc3c2CN([C@H](CCCn2cnc4ccccc42)c2ccc(OC)c(OC)c2)C3=O)CC1", "Tested Target": "UT receptors in HSMM (Human Skeletal Muscle Myoblasts) (Homo sapiens)", "Measured Property": "Ki", "Observed Result": 0.056}
{"Mol": "CCN1CCN(c2cccc3c2CN([C@H](CCCn2cncn2)c2ccc(OC)c(OC)c2)C3=O)CC1", "Tested Target": "UT receptors in HSMM (Human Skeletal Muscle Myoblasts) (Homo sapiens)", "Measured Property": "Ki", "Observed Result": 0.301}
{"Mol": "CCN1CCN(c2cccc3c2CN([C@H](CCCN(C)Cc2ccccc2)c2ccc(OC)c(OC)c2)C3=O)CC1", "Tested Target": "UT receptors in HSMM (Human Skeletal Muscle Myoblasts) (Homo sapiens)", "Measured Property": "Ki", "Observed Result": 0.034}

I: CCN1CCN(c2cccc3c2CN([C@H](CCCN(Cc2ccncc2)Cc2ccncc2)c2ccc(OC)c(OC)c2)C3=O)CC1
II: CCN1CCN(c2cccc3c2CN([C@H](CCCn2cnnn2)c2ccc(OC)c(OC)c2)C3=O)CC1
q: Hi! Which is lower in terms of Ki, the first one I or the second one II ? Answer by quoting the chosen item's label.
a: I
